B1: Pistol ribozyme (parent)
chain: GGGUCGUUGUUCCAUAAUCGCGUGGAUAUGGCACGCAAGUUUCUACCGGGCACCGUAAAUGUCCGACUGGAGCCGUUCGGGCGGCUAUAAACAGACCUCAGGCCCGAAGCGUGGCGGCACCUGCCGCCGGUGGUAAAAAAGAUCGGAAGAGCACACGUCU

Variants of: B1
Assay: aptazyme ON/OFF ratio, guanine; higher = stronger switching; co-transcriptional cleavage with and without guanine
experimentalEndpoint: aptazyme ON/OFF ratio
Number, no unit, nothing else.

A selection of reference data follows.
> print(dat)
           variantdescription  reportedvalue
1  U7C U8C G9C U10A U11C C13A           1.08
2     U7G U10A U11A C12G C13U           1.16
3      U7G U8C U10A U11G C13G           1.23

IN: # get_value(readout='aptazyme ON/OFF ratio', item= U7C U8G G9U U10A C12U C13U )
OUT: 1.35
